# Tested on: female BALB/C mice
# assay-explanation: In vivo imaging in mice of Fluc-mRNA LNP formulations (mRNA expression and duration)
# assay-setup: 6 h
readout-label: average radiation intensity, times that of compound 21

[[record]]
entry_smiles = "CCCCCCCCC(CCCCCCCC)COC(=O)CCCCCN(CCCO)CCCN(CCCO)CCCCCC(=O)OCC(CCCCCCCC)CCCCCCCC"
observed_result = 2.71

[[record]]
entry_smiles = "CCCCCCCCCCCOC(=O)CCCN(CCO)CCN(CCO)CCCCCC(=O)OC(CCCCCCCC)CCCCCCCC"
observed_result = 6.66

[[record]]
entry_smiles = "CCCCCCCCC(CCCCCCCC)OC(=O)CCCCCCCN(CCO)CCN(CCO)CCCCCCCC(=O)OC(CCCCCCCC)CCCCCCCC"
observed_result = 2.65

[[record]]
entry_smiles = "CCCCCCCCC(CCCCCCCC)C(=O)OCCCCCCN(CCO)CCN(CCO)CCCCCCOC(=O)C(CCCCCCCC)CCCCCCCC"
observed_result = 2.45

[[record]]
entry_smiles = "CCCCCCCCC(CCCCCCCC)OC(=O)CCCCCN(CCO)CCN(CCO)CCCCCC(=O)OC(CCCCCCCC)CCCCCCCC"
observed_result = 2.59

[[record]]
entry_smiles = "CCCCCCCCC(CCCCCCCC)COC(=O)CCCCCN(CCCO)CCN(CCCO)CCCCCC(=O)OCC(CCCCCCCC)CCCCCCCC"
observed_result = 2.21


----------
# System: 293T cells
# assay-explanation: Cell survival rate assay (CCK-8)
# Assay type: cell-based
# assay-setup: LNP with 1.5 μg Fluc-mRNA, 24 hours, CCK-8
Values of Cell survival rate greater than or equal to 40% map to yes (1); values below map to no (0).

[[record]]
compound = "CCCCCCCCCCCOC(=O)CCCN(CCO)CCCN(CCO)CCCCCC(=O)OCC(CCCCCCCC)CCCCCCCC"
assigned_label = "yes (1)"

[[record]]
compound = "CCCCCCCCCCCOC(=O)CCCN(CCO)CCN(CCO)CCCCCC(=O)OC(CCCCCCCC)CCCCCCCC"
assigned_label = "yes (1)"

[[record]]
compound = "CCCCCCCCCCOC(=O)CCCN(CCO)CCN(CCO)CCCC(=O)OC(CCCCCCCC)CCCCCCCC"
assigned_label = "yes (1)"

[[record]]
compound = "CCCCCCCCC(CCCCCCCC)C(=O)OCCCCCCN(CCO)CCN(CCO)CCCCCCOC(=O)C(CCCCCCCC)CCCCCCCC"
assigned_label = "yes (1)"

[[record]]
compound = "CCCCCCCCCCOC(=O)CCCN(CCO)CCCCCC(=O)OCC(CCCCCCCC)CCCCCCCC [YK-009, reference compound]"
assigned_label = "yes (1)"

[[record]]
compound = "CCCCCCCCCCOC(=O)CCCN(CCO)CCCCN(CCO)CCCCCC(=O)OC(CCCCCCCC)CCCCCCCC"
assigned_label = "no (0)"


----------
# System: female BALB/C mice
# assay-explanation: In vivo imaging in mice of Fluc-mRNA LNP formulations (mRNA expression and duration)
# assay-setup: 6 h
readout-label: average radiation intensity, times that of compound 23

[[record]]
entry_smiles = "CCCCCCCCCCCOC(=O)CCCN(CCO)CCN(CCO)CCCCCC(=O)OC(CCCCCCCC)CCCCCCCC"
test_system = "female BALB/C mice"
observed_result = 6.88

[[record]]
entry_smiles = "CCCCCCCCC(CCCCCCCC)OC(=O)CCCCCCCN(CCO)CCN(CCO)CCCCCCCC(=O)OC(CCCCCCCC)CCCCCCCC"
test_system = "female BALB/C mice"
observed_result = 2.73

[[record]]
entry_smiles = "CCCCCCCCC(CCCCCCCC)COC(=O)CCCCCN(CCCO)CCCN(CCCO)CCCCCC(=O)OCC(CCCCCCCC)CCCCCCCC"
test_system = "female BALB/C mice"
observed_result = 2.80

[[record]]
entry_smiles = "CCCCCCCCC(CCCCCCCC)C(=O)OCCCCCCN(CCO)CCN(CCO)CCCCCCOC(=O)C(CCCCCCCC)CCCCCCCC"
test_system = "female BALB/C mice"
observed_result = 2.53

[[record]]
entry_smiles = "CCCCCCCCC(CCCCCCCC)COC(=O)CCCCCN(CCCO)CCN(CCCO)CCCCCC(=O)OCC(CCCCCCCC)CCCCCCCC"
test_system = "female BALB/C mice"
observed_result = 2.29

[[record]]
entry_smiles = "CCCCCCCCC(CCCCCCCC)OC(=O)CCCCCN(CCO)CCN(CCO)CCCCCC(=O)OC(CCCCCCCC)CCCCCCCC"
test_system = "female BALB/C mice"
observed_result = 2.68


----------
// reported Encapsulation efficiency for each item listed
# assay-explanation: Detection of encapsulation efficiency, drug loading concentration and total RNA concentration (RiboGreen)
# Type: physicochemical
# assay-setup: LNP formulation prepared from the cationic lipid
# Text: Encapsulation efficiency is a key quality attribute of liposomes, which refers to the percentage of drug content encapsulated in the lipid bimolecular layer accounting for the total drug dose and can reflect the degree of drug encapsulation in liposomes. The Chinese Pharmacopoeia stipulates that the encapsulation efficiency should generally not be less than 80%. The drug loading amount is the ratio of the amount of drug in the liposome to the total amount of drug and carrier in the liposome. […]
readout-label: Encapsulation efficiency (%)

[[record]]
compound = "CCCCCCCCCCOC(=O)CCCCCN(CCO)CCCN(CCO)CCCCCC(=O)OCC(CCCCCCCC)CCCCCCCC"
readout_label = "Encapsulation efficiency"
result_unit = "%"
observed_result = 79.6

[[record]]
compound = "CCCCCCCCC(CCCCCCCC)C(=O)OCCCCCCN(CCO)CCN(CCO)CCCCCCOC(=O)C(CCCCCCCC)CCCCCCCC"
readout_label = "Encapsulation efficiency"
result_unit = "%"
observed_result = 91.0

[[record]]
compound = "CCCCCCCCCCOC(=O)CCCN(CCO)CCCCCC(=O)OCC(CCCCCCCC)CCCCCCCC [YK-009, reference compound]"
readout_label = "Encapsulation efficiency"
result_unit = "%"
observed_result = 63.4

[[record]]
compound = "CCCCCCCCC(CCCCCC)C(=O)OCCCCCCN(CCCCO)CCCCCCOC(=O)C(CCCCCC)CCCCCCCC (stereo not shown) [ALC-0315, reference compound]"
readout_label = "Encapsulation efficiency"
result_unit = "%"
observed_result = 63.3

[[record]]
compound = "CCCCCCCCCCCOC(=O)CCCN(CCO)CCN(CCO)CCCCCC(=O)OCC(CCCCCCCC)CCCCCCCC"
readout_label = "Encapsulation efficiency"
result_unit = "%"
observed_result = 86.9

[[record]]
compound = "CCCCCCCCC(CCCCCCCC)OC(=O)CCCCCN(CCO)CCCN(CCO)CCCCCC(=O)OC(CCCCCCCC)CCCCCCCC"
readout_label = "Encapsulation efficiency"
result_unit = "%"
observed_result = 88.3

[[record]]
compound = "CCCCCCCCC(CCCCCCCC)COC(=O)CCCCCN(CCCO)CCCN(CCCO)CCCCCC(=O)OCC(CCCCCCCC)CCCCCCCC"
readout_label = "Encapsulation efficiency"
result_unit = "%"
observed_result = 89.7

[[record]]
compound = "CCCCCCCCCCOC(=O)CCCCCN(CCO)CCCN(CCO)CCCCCC(=O)OCCC(CCCCCC)CCCCCC"
readout_label = "Encapsulation efficiency"
result_unit = "%"
observed_result = 74.8

[[record]]
compound = "CCCCCCCCCCOC(=O)CCCN(CCO)CCN(CCO)CCCCCC(=O)OC(CCCCCCCC)CCCCCCCC"
readout_label = "Encapsulation efficiency"
result_unit = "%"
observed_result = 83.2

[[record]]
compound = "CCCCCCCCCCCCC(O)CN(C)CCCCCC(=O)OCC(CCCCCC)CCCCCCCC (stereo not shown) [HHMA, reference compound]"
readout_label = "Encapsulation efficiency"
result_unit = "%"
observed_result = 60.2

[[record]]
compound = "CCCCCCCCC(CCCCCCCC)COC(=O)CCCCCN(CCCO)CCN(CCCO)CCCCCC(=O)OCC(CCCCCCCC)CCCCCCCC"
readout_label = "Encapsulation efficiency"
result_unit = "%"
observed_result = 92.4

[[record]]
compound = "CCCCCCCCCCOC(=O)CCCN(CCO)CCCCN(CCO)CCCCCC(=O)OC(CCCCCCCC)CCCCCCCC"
readout_label = "Encapsulation efficiency"
result_unit = "%"
observed_result = 83.1

[[record]]
compound = "CCCCCCCCCCOC(=O)CCCN(CCO)CCN(CCO)CCCC(=O)OC(CCCCCCCC)CCCCCCCC"
readout_label = "Encapsulation efficiency"
result_unit = "%"
observed_result = 86.6


----------
# System: 293T cells
# assay-explanation: Fluorescent detection of Fluc-mRNA (cell transfection efficiency of LNP formulations)
# Format: cell-based
# assay-setup: LNP with 0.3 μg Fluc-mRNA, 96-well plate, 24 hours
// reported Relative light unit (RLU) for each item listed
readout-label: Relative light unit (RLU)

[[record]]
compound = "CCCCCCCCCCCCC(O)CN(C)CCCCCC(=O)OCC(CCCCCC)CCCCCCCC (stereo not drawn) [HHMA, reference compound]"
readout_label = "Relative light unit (RLU)"
observed_result = "2078940 RLU"

[[record]]
compound = "CCCCCCCCCCOC(=O)CCCN(CCO)CCCCN(CCO)CCCCCC(=O)OC(CCCCCCCC)CCCCCCCC [YK-421]"
readout_label = "Relative light unit (RLU)"
observed_result = "466616 RLU"

[[record]]
compound = "CCCCCCCCC(CCCCCC)C(=O)OCCCCCCN(CCCCO)CCCCCCOC(=O)C(CCCCCC)CCCCCCCC (stereo not drawn) [ALC-0315, reference compound]"
readout_label = "Relative light unit (RLU)"
observed_result = "2189470 RLU"

